- measurement target: Pancreatic triacylglycerol lipase (Sus scrofa, UniProt P00591)
- Sequence (P00591 whole entry): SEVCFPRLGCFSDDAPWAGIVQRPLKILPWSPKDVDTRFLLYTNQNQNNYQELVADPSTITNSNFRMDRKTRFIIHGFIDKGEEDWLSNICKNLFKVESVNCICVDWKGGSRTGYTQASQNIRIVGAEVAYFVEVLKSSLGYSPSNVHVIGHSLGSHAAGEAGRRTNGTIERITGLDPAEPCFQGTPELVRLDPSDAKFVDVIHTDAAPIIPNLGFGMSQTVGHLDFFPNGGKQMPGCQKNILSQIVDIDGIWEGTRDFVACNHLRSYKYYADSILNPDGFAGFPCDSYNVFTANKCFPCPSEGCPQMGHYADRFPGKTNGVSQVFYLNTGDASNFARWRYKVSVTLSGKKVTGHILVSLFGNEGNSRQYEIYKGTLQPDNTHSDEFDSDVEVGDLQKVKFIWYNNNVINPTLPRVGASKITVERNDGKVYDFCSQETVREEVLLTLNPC
- test protocol: Inhibition of porcine pancreatic lipase using p-nitrophenyl butyrate as substrate pretreated for 15 mins followed by substrate addition measured after 15 mins in presence of plasma by spectrophotometric method
measured attribute: IC50 (µM)
Give just the numeric value; µM need not be written.

Fill in: IC50 of `O=C(CCc1ccc(O)cc1)c1c(O)cc(O)cc1O[C@@H]1O[C@H](CO)[C@@H](O)[C@H](O)[C@H]1O` is ___
68.3
